- Test system: MS2 coat protein
- run-description: apparent KD of MS2 coat protein; designed switch direction (-1 OFF switch, 1 ON switch): -1; higher = weaker reporter binding
- condition-parameters: input ligand: FMN 200 uM
Kind request: treat 60 nM as inclusive, so apparent KD of MS2 coat protein at 60 nM or higher is t, anything lower is f.

polymer-sequence	answer-label
AAGUGACAUGAGGAUCACCCAUGUCAGGAUAUGCGCCGCUUACGCCUAAGUGUAGGGAGCAGAAGGGACAUAGA [EX1 B.2] (Eterna round: R97, puzzle: Exclusion 1)	f
AACCUGAGGCUUUGCUUUAGGUGUACAUGAGGAUCACCCAUGUAGGAUAUGGUAGGCAAAGCUUACCAGAAGGACAUGUUAAUU [Mat - Exclusion NG 3 - Mod of JL - D37] (Eterna round: R96, puzzle: Exclusion NG 3)	t
CCACCGCCGUCAGGAUAUAACAUGAGGAUCACCCAUGUGUGAAGCAUGAGAGACUCUAACAAGUGUUAGAAGGGACUUAUUGCG [Eternabot solution 36] (Eterna round: R96, puzzle: Exclusion NG 2)	t
GCGGGCUUGGGAGGAUAUACAUGAGGAUCACCCAUGUGUGUUCGGGCUGGCCGGUUUGGGCGCGUGUAGAAGGCUCGGGUUUGC [less GC, A 14%] (Eterna round: R96, puzzle: Exclusion NG 2)	f
GCUAAACAAGGAUAUACAUGAGGAUCACCCAUGUAGGCAUAGGGUGAAGCACGCCUAUGUAGAAGGUGUCCGCA [Eternabot (Original) Solution 34] (Eterna round: R97, puzzle: Exclusion 3)	t

Alright, here's another sequence for you.
// inclusive: apparent KD of MS2 coat protein at least 60 nM? input: AACAUGGUAAAGGAUAUUGUCGCAGAAUGCGAUCAAGAAGGUUACACAUGAGGAUCACCCAUGUGGAAUCCAUC [Eternabot (Original) Solution 24] (Eterna round: R97, puzzle: Exclusion 6) t

====

Listing of recorded apparent KD of MS2 coat protein by entry.
- System: MS2 coat protein
- run-description: apparent KD of MS2 coat protein; designed switch direction (-1 OFF switch, 1 ON switch): 1; higher = weaker reporter binding
- condition-parameters: input ligand: none
Kindly report the value followed by its unit.

Use these answered entries as a reference point.
polymer-sequence	apparent KD of MS2 coat protein
GCGAAAUGAUGUGACAUGAGGAUCACCCAUGUAACCUCAUGUAAGGAUAUCGGAAAAAAAAAAACCGAGAAGGUAUGGUCACGC [AK SSNG3-V2-27.1] (Eterna round: R96, puzzle: Same State NG 3)	216 nM
GCUAGAAAUAAUGCCAACAUGAGGAUCACCCAUGUAUGUUGGCAGGAUAUCGUAUGCAAAGCAUACGAGAAGGGCUAAACUAGC [Mat - Same State NG 3 - JL Mod - D9] (Eterna round: R96, puzzle: Same State NG 3)	231 nM

Recorded apparent KD of MS2 coat protein (sequence UGGUACAUGGGAGGAUAUGGGCAUGAGACAUGAGGAUCACCCAUGUAUUAAAAGCCGAAAGGCAUCUAGAAGGCCCAUGUACCU [JL SSNG1 3.85] (Eterna round: R96, puzzle: Same State NG 2) ): 214 nM

Recorded apparent KD of MS2 coat protein (sequence GGUCGGACUCACAUGAGGAUCACCCAUGUUGCGGAAACGCAGCAGGAUAUCUGUCCGAAAAGGUCAGAGAAGGGCUAACCGACC [Fiskers NG3ss - 57] (Eterna round: R96, puzzle: Same State NG 3) ): 1310 nM

====

Listing of recorded apparent KD of K4 kissing-loop reporter by entry.
- Tested on: K4 kissing-loop RNA reporter;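 also: bound reporter read as fluorescence of individual clusters on recovered sequencing chips by microscopy, with normalized cluster intensities fitted with a binding model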
- run-description: apparent KD of K4 kissing-loop reporter; higher = weaker reporter binding
- condition-parameters: Eterna round: R107; input ligand: theophylline 20 uM
Provide only the numeric value, understood in nM.

Use these answered entries as a reference point.
polymer-sequence	endpoint-value
UAUAGAGUGACGGCCGCCACUAUUGUGAUUUAAUUGUUAGAGUGAUGUUUUGAUGUUUGAUUUUGUAGGACCGGGUUAUAUGUUA [wwwzmullin]	795
UGACUGGACUGAAGGAGCGCGCGAGACAAAGUCUCGAACUUCUAGUGAUGUUAGAAAAUAACGCAGGUAGGUCGCAGUCUAGUCU	147
GCCGCCGCGGCAGGAUAUAGGUUCAUGGAGUGAUGUUCCAUAACCCGAGUGAUGUUCGUUAUCCGCCUAGAAGGGCCGCGGCGGC	177
CGAGUGAUGUUCGUUCGUAUAUUUGGGUGACAGGAUAUGCGGAAACGCAGAAGGGUCGCCUUCGGGUUACCCGAAUUGGCGUUUU [FMN A Model 2]	461
UUUCGGUUCUGAGGAUAUUCGGACAAAUAUAGUGAUGUUGUAUAAGGAGGAGGGUGUUGGCAGUGAGGAGAAGGCAGAAGAGGAU [ExFMNB.T]	524

Recorded apparent KD of K4 kissing-loop reporter (sequence ACAGGAUCGAAAGAUCCUGAGCAGUCAAAACGAGGACCGGUACGGCCGCCACUCGAAUAAGAGAGUGAUGUUCUCGACUGCAAAA [Omei inspired 10 - Reversed #K4Late] ): 1050

Recorded apparent KD of K4 kissing-loop reporter (sequence UUGAGCCGGACCCAAGUCCGGCUCUGCGAGCGAGGACCGGUACGGCCGCCACUCGGUGCAGUGAUGUUGCAUGGCCGCAAGGCCG [#2 Exclusion - Tryptophan A Attempt #7 (HarryS)] ): 372

Recorded apparent KD of K4 kissing-loop reporter (sequence UGGUAUAGUGAUGUUAUACCACUACCAGAUACCAGUGUAACAUUACGCCCUUGGCAGCUGAUCAGGGAACAUAUGGAGACAUAUG [Theo A Mod astro A#6] ): 267

====

Listing of recorded apparent KD of MS2 coat protein by entry.
- Tested on: MS2 coat protein
- run-description: apparent KD of MS2 coat protein; higher = weaker reporter binding
- condition-parameters: Eterna round: R107; input ligand: theophylline 20 uM
Kindly report the value followed by its unit.

Use these answered entries as a reference point.
polymer-sequence	apparent KD of MS2 coat protein
CAAUAUAUAUGAAGGAGCGUCGAAAAUGGGUAAACAUGAGGAUCACCCAUGUAAAGGGAACGACAGGUAGGUCGCAUAUGUAUUG [AstromonsSSArgB#9]	195 nM
UUCAGACAUGAGGAUCACCCAUGUACUGAAGGAGCGGAUAAAUAUCCAGGUAGGUCGCAGUAUUGAGGGUCUACUUCCAGUCUUU [Reoruser]	11.9 nM
ACGAACGCACCUGAGGAUCACCCAGGUGAUACCAGCCUGGAAACAGGCCCUUGGCAGCACCUAAAAUAAAGGUAACGUUCGAAUA [TheoAX7 #MicroSwitchBubble #AlternativeMS2]	165 nM

// switching to the query sequence
Recorded apparent KD of MS2 coat protein (sequence CAUAUAUAUAGAAGGAGCGUCGAAAAUGGGUAAACAUGAGGAUCACCCAUGUAAAGGGAACGACAGGUAGGUCGCUAUAUAUAUG [AstromonsSSArgB#3] ): 187 nM

====

- Test system: MS2 coat protein
- run-description: apparent KD of MS2 coat protein; designed switch direction (-1 OFF switch, 1 ON switch): -1; higher = weaker reporter binding
- condition-parameters: input ligand: none
Listing of recorded apparent KD of MS2 coat protein by entry.
Provide only the numeric value, understood in nM.

Recorded apparent KD of MS2 coat protein (sequence AGUAGUUGUUUCCGUUCUUACAUGAGGAUCACCCAUGUUUCUUGACGUGCACGCGAUGCUCGUCAGACUACCAGAUG [salish99_TOv1_r3_057] (Eterna round: R96, puzzle: Sensor v3, turn-off variant 1) ): 57

Recorded apparent KD of MS2 coat protein (sequence GCUAGAGCAGGAUAUUCAAAACCUCACAUGAGGAUCACCCAUGUGGCCGAAAGGCCGGGAGGAGAAGGGCUCUAGC [Mat - Exclusion 5 - Eli mod - D84] (Eterna round: R96, puzzle: Exclusion 5) ): 19.4

Recorded apparent KD of MS2 coat protein (sequence GAAAACGCAGGAUAUUAAUACUUAUACAUGAGGAUCACCCAUGUUUAUUGGGAUUAAGAAUAAGAAGGGCGAUGAA [EX5 #1] (Eterna round: R97, puzzle: Exclusion 5) ): 24

====

- Tested on: MS2 coat protein
- run-description: apparent KD of MS2 coat protein; designed switch direction (-1 OFF switch, 1 ON switch): 1; higher = weaker reporter binding
- condition-parameters: Eterna round: R95; input ligand: FMN 200 uM
test-readout: apparent KD of MS2 coat protein (nM)
Provide only the numeric value, understood in nM.

polymer-sequence	test-target	apparent KD of MS2 coat protein (nM)
GGCAGGUGCAGGCUUGCUUGCACCUGGAAACAUGAGGAUCACCCAUGUUUGGGACAAGCUUUGCUCCUCGUCUUGUC [JL ViennaUCT Isusreraar mod 2] (puzzle: Sensor for hsa-mir-208a)	MS2 coat protein	28.2
CGUCCGGCCUGUGCUGGCCGGUAGCUUGUACAUGAGGAUCACCCAUGUUCAUGUGCAGGCUUUUUGCUCGUCUUGUG [salish99_mir208a_014] (puzzle: Sensor for hsa-mir-208a)	MS2 coat protein	27.9
UCAAGCGAGAGGCUCGUCUUAUGCAAGGAACAUGAGGAUCACCCAUGUGAGGGACGAUUGAGUUAGAUGGAAUGGAG [JR_SHM208A_Sub032] (puzzle: Sensor for hsa-mir-208a)	MS2 coat protein	29.9
UCAUGGUUUUUGCUCGUUUUAUGUGUUGAACAUGAGGAUCACCCAUGUAUUGUACGAUCCAGUUAGAUGGUGGUUUG [JR_SHM208A_Sub043] (puzzle: Sensor for hsa-mir-208a)	MS2 coat protein	235
GGCUAUCGCGUACGAUAGCUGAAGCGUGUACAUGAGGAUCACCCAUGUCAUGUACAAGCUUUUUGCUCGUCUUAUUG [JL-shm-2.33 JL mod] (puzzle: Sensor for hsa-mir-208a)	MS2 coat protein	155

// switching to the query sequence
Recorded apparent KD of MS2 coat protein (sequence UAGAGAGGAAGCGAGGAUAUCGUGGGAGGAACAUGAGGAUCACCCAUGUGUGAUGUUGAGAGGAACGAGAAGGCGCAGGAAAGUA [JR_SS2_Sub078] (puzzle: Same State 2) ): 83.3
